- Target or test system: T1, APBA1_2, Q02410
- T1 sequence (Q02410 742-832, limits assumed, looked up): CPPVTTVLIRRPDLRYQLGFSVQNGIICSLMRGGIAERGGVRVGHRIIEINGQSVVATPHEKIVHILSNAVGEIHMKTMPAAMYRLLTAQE
- Assay remarks: holdup assay
- Parameters: key: below the threshold = too weak to quantify, mostly under pKd 3.1 to 4
- Measurement conditions: plain residues with an end cap or a label only (N-terminal biotin on a linker: ado-ado)
pKd values, listed per item
Give the figure only, with no unit attached.

# Binder, Value reported
records = [
    ("QKNKDKEYYV [NRXN3_rs746444206, Q9Y4C0]", 4.02),
]

Problem: Name the reported pKd value associated with the binder EEPEERHTEL [CES2, O00748]
Solution: 3.5

Problem: Name the reported pKd value associated with the binder FVHPILQSAV [PRKCA, P17252]
Solution: 3.69

Problem: Name the reported pKd value associated with the binder TETASVCTKV [SLC23A1, Q9UHI7]
Solution: 4.64

Value source: paper PMC9482650
